melting point overview

compound	melting point
CCOC(=O)Nc1ccc(-c2c(C#N)c3ccc(OCCOC)cc3n2CC)cc1	175 to 177 °C
CC(C)OC(=O)Nc1ccc(-c2c(C#N)c3ccc(OCCSc4ccccn4)cc3n2C2CCC2)cc1	145 to 146 °C
CCOCCOc1ccc2c(C#N)c(-c3ccc(NC(=O)OC(C)C(F)(F)F)cc3)n(C3CCC3)c2c1 (stereo not drawn)	122 to 124 °C
CCOc1ccc2c(C#N)c(-c3ccc(NC(=O)OCc4cccnc4)cc3)n(C3CCC3)c2c1	187 to 194 °C
CCNC(=O)Oc1ccc(-c2c(C#N)c3ccc(OC4CCOCC4)cc3n2C2CCC2)cc1	205 to 207 °C
CS(=O)(=O)CCCOc1ccc2c(C#N)c(-c3ccc(NS(=O)(=O)C4CC4)cc3)n(C3CCC3)c2c1	203 to 204 °C
